Entry source: patent US20200216439A1

Measured log10 IC50 by item
Target: catalytic domain of human Bub1 (amino acids 704-1085) (Homo sapiens, UniProt O43683)
Construct: catalytic domain of human Bub1 (amino acids 704-1085); His6 (N); made in house; host or cells: Hi5 insect cells
Sequence (O43683 704-1085): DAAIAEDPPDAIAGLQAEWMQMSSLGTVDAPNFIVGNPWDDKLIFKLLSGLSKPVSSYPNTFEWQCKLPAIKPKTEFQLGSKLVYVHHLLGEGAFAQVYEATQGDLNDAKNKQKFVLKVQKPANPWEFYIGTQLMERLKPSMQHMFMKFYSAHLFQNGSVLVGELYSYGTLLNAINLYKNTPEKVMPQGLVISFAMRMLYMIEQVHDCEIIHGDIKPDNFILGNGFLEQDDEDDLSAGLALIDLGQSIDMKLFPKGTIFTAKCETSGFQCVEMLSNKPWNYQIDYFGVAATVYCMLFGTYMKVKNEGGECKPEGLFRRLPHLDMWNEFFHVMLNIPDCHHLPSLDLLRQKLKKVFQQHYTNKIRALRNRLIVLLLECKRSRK
Experiment: Bub1 kinase assay (TR-FRET)
Type: biochemical
Details: TR-FRET; ATP 10 μM, peptide substrate 1 μM; 60 min at 22° C.; average or median if tested more than once; read-out: Inhibition of Bub1 kinase IC50
recorded-endpoint: log10 IC50 (log10 of the value in nM)

>  <molecule>
CS(=O)(=O)N1CC(=O)c2c([nH]c(-c3ccnc(NC(=O)[C@@H]4C[C@@H]4F)c3)c2Nc2ccccc2)C1 [Example 203]

>  <log10 IC50>
0.30

$$$$
>  <molecule>
CC(=O)Nc1cc(-c2[nH]c3c(c2Nc2ccc(F)cc2)C(=O)CN(C(=O)OC(C)(C)C)C3)ccn1 [Example 297]

>  <log10 IC50>
1.74

$$$$
>  <molecule>
CNC(=O)N1CC(=O)c2c([nH]c(-c3ccnc(NC(C)=O)c3)c2Nc2ccccc2)C1 [Example 168]

>  <log10 IC50>
0.70

$$$$
>  <molecule>
CNC(=O)N1CC(=O)c2c([nH]c(-c3ccnc(NC(=O)[C@@H]4C[C@@H]4F)c3)c2Nc2ccccc2)C1 [Example 206]

>  <log10 IC50>
0.60

$$$$
>  <molecule>
CC(C)(C)OC(=O)N1CC(=O)c2c([nH]c(-c3ccnc(NC(=O)[C@@H]4C[C@@H]4F)c3)c2Nc2ccccc2)C1 [Example 196]

>  <log10 IC50>
0.85

$$$$
>  <molecule>
O=C1CN(C(=O)CCO)Cc2[nH]c(-c3ccncc3)c(Nc3ccccc3)c21 [Example 56]

>  <log10 IC50>
0.70

$$$$
>  <molecule>
CCNC(=O)Nc1cc(-c2[nH]c3c(c2Nc2ccccc2)C(=O)COC3)ccn1 [Example 54]

>  <log10 IC50>
1.89

$$$$
>  <molecule>
COC(=O)N1CC(=O)c2c([nH]c(-c3ccnc(NC(=O)[C@@H]4C[C@H]4F)c3)c2Nc2ccccc2)C1 [Example 143]

>  <log10 IC50>
0.78

$$$$
>  <molecule>
CC(=O)Nc1cc(-c2[nH]c3c(c2Nc2ccc(C)cc2)C(=O)CNC3)ccn1 [Example 303]

>  <log10 IC50>
3.06

$$$$
>  <molecule>
O=C(Nc1cc(-c2[nH]c3c(c2Nc2ccccc2)C(=O)COC3)ccn1)c1ccc(F)c(F)c1 [Example 154]

>  <log10 IC50>
1.28

$$$$
>  <molecule>
CSCCNC(=O)N1CC(=O)c2c([nH]c(-c3ccncc3)c2Nc2ccccc2)C1 [Example 87]

>  <log10 IC50>
1.04

$$$$
>  <molecule>
O=C1CN(C(=O)NC2CC2)Cc2[nH]c(-c3ccncc3)c(Nc3ccccc3)c21 [Example 84]

>  <log10 IC50>
0.95

$$$$
>  <molecule>
CN(C)S(=O)(=O)N1CC(=O)c2c([nH]c(-c3ccncc3OCC(F)F)c2Nc2ccccc2)C1 [Example 281]

>  <log10 IC50>
1.00

$$$$
>  <molecule>
O=C1COCc2[nH]c(-c3ccncc3)c(Nc3ccccc3)c21 [Example 6]

>  <log10 IC50>
1.62

$$$$
>  <molecule>
O=C1CN(C(=O)N2CCCCC2)Cc2[nH]c(-c3ccncc3)c(Nc3ccccc3)c21 [Example 93]

>  <log10 IC50>
0.60

$$$$
>  <molecule>
CC(=O)Nc1cc(-c2[nH]c3c(c2Nc2ccccc2)C(=O)CN(C(=O)c2cnsc2)C3)ccn1 [Example 193]

>  <log10 IC50>
1.28

$$$$
